The compounds listed here are annotated with their pest or weed control at 200 ppm.
Test system: Botrytis cinerea
Measurement Notes: Controlling effect (curing effect) on cucumber gray mold
Type: in vivo
Condition Context: 72 h, immersion of inoculated cotyledons, 15° C., read-out: Controlling effect Bc (cucumber gray mold)

Solved entries (count: 4):
COc1nsc(S(=O)(=O)c2ccccc2)c1C#N | 60 to 79%
C#CCOc1nsc(S(=O)(=O)CCOCC)c1C#N | 60 to 79%
C#CCOc1nsc(S(=O)(=O)c2ccc(Cl)cc2)c1C#N | 60 to 79%
CCC(C)Oc1nsc(S(=O)(=O)C(F)F)c1C#N (centres unmarked) | 0 to 59%

# input for lookup
Q: Note pest or weed control at 200 ppm for the compound shown: CCOc1nsc(S(=O)(=O)C(F)F)c1C#N
Result: 80 to 94%
